molecular target: T1, GPC3 endogenously expressed on HepG2 cells (UniProt P51654 25-554); assay: FACS on HepG2 cells;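 note: flow cytometric binding of chimeric antibodies to cells, read as mean fluorescence intensity, EC50 obtained by curve fitting of the MFI data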
T1 construct: whole, on cells
Property label: Max MFI
Please state the number and follow it with the unit.

Some solved entries appear below for comparison.
F2.92.1 human-murine chimeric antibody (antibody, human IgG1, kappa, V domains shown) VH: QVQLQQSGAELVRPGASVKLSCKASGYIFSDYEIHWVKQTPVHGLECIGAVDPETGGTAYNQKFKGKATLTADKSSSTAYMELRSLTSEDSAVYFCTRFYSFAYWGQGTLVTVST VL: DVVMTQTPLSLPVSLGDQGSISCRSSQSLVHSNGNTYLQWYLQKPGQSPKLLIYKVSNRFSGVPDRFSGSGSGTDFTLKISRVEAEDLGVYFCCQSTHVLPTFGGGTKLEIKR	14000 MFI
F1.21.8 human-murine chimeric antibody (antibody, human IgG1, kappa, V domains shown) VH: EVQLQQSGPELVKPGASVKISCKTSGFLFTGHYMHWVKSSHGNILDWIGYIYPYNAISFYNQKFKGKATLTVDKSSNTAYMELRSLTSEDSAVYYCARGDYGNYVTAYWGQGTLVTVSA VL: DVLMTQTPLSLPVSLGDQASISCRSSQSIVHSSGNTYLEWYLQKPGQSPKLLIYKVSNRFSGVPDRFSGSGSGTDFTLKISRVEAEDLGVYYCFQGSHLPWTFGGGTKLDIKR	2190 MFI

Query block: Please give the measured Max MFI for this binder: F2.23.8 human-murine chimeric antibody (antibody, human IgG1, kappa, V domains shown) VH: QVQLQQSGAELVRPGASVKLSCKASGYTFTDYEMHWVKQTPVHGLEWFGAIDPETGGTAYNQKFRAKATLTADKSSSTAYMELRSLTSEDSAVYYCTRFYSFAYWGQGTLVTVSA VL: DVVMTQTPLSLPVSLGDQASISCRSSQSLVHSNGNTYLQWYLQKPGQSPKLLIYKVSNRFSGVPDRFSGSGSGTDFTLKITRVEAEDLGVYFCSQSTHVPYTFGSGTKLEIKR
Result block: 11300 MFI

Query block: Please give the measured Max MFI for this binder: F4.26.1 human-murine chimeric antibody (antibody, human IgG1, kappa, V domains shown) VH: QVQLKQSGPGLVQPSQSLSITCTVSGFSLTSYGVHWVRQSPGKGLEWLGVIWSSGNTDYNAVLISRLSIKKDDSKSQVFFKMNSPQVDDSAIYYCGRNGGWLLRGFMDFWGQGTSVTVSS VL: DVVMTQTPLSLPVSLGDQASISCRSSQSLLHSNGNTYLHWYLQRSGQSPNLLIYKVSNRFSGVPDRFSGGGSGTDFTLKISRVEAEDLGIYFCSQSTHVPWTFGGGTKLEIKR
Result block: 1600 MFI

Query block: Please give the measured Max MFI for this binder: F1.111.11 human-murine chimeric antibody (antibody, human IgG1, kappa, V domains shown) VH: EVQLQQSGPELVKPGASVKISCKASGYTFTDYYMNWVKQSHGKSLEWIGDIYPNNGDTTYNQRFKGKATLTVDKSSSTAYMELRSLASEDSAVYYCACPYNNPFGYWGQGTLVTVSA VL: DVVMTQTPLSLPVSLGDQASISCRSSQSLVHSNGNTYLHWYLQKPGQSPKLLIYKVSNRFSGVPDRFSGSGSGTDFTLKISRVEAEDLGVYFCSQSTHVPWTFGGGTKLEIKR
Result block: 1880 MFI
